All figures here come from ChEMBL document CHEMBL1151097.

Experiment: pKa value was determined
Format: physicochemical

{"SMILES": "N[C@H](COCc1cc(C(F)(F)F)cc(C(F)(F)F)c1)c1ccccc1", "pKa": 7.93}
